Measured MDCK-MDR1: % Recov B-A (%) values are reported for all entries that follow.
tested on: MDR1-MDCK cell monolayers; conditions: dog, MDCK-MDR1, 120 min, 5 μM, pH 7.4
Readout Label: MDCK-MDR1: % Recov B-A (%)

Compound	Display Unit	Numeric Readout
CN(c1cnc(-c2cc(F)c(-c3cnn(C)c3)cc2O)cn1)[C@@H]1C[C@@]2(C)CC[C@](C)(N2)[C@@H]1F	%	64
COc1cc(-c2cc(O)c(-c3cnc(N(C)[C@@H]4C[C@@]5(C)CC[C@](C)(N5)[C@@H]4F)cn3)cc2F)cnn1 (single isomer, unassigned) [Compound 64E1]	%	80
COc1cc(-c2cc(O)c(-c3cnc(N(C)[C@H]4C[C@@H]5CCC(N5)[C@H]4F)cn3)cc2F)cc(F)n1 (single isomer, unassigned)	%	67
COc1cc(-c2cc(O)c(-c3cnc(N(C)[C@H]4C[C@@H]5CCC(N5)[C@H]4F)cn3)cc2F)ccn1 (single isomer, unassigned)	%	37
CN(c1cnc(-c2cc(F)c(-c3ccn(CF)c(=O)c3)cc2O)cn1)[C@@H]1C[C@H]2CC[C@H](N2)[C@@H]1F	%	92
CN(c1cnc(-c2ccc(-c3cc(=O)n(C)cn3)cc2O)cn1)[C@H]1C[C@@H]2CCC(N2)[C@H]1F (single isomer, unassigned)	%	90
